Just for reference, patent US20050020492A1 is where these values come from.

# system: T1, human MCH-1R (human, UniProt Q99705 1-353)
# T1 construct: Function: 293AEQ17/MCH-1R cells; also called hMCH-1R
# T1 sequence (Q99705 whole entry): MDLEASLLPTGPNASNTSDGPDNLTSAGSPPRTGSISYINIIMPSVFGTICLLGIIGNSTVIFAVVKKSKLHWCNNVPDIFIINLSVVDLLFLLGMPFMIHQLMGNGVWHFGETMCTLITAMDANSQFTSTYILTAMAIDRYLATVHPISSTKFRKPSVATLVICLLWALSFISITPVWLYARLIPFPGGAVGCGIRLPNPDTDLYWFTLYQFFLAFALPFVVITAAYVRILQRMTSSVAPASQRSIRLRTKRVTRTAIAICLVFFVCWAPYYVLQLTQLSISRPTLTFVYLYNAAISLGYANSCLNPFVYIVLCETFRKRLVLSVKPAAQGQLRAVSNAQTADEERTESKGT
# procedure-details: ratio of the two SPA IC50s
Positions of bridges follow the written chain, without caps; N, C: chain ends. Non-standard residues stand in square brackets, D forms with d. Cha = N[C@@H](CC1CCCCC1)C(=O)O
API: label(entry) gives MET if the entry's Selectivity 2/1 (MCH-2R/MCH-1R IC50 ratio) is strictly smaller than 20 ratio; on equality or larger values it gives NOT MET.

// known answers, use as guide
Prompt: Dear colleague, could you confirm whether Selectivity 2/1 (MCH-2R/MCH-1R IC50 ratio) of RCMLXRVYRPC (HELM PEPTIDE1{[ac].R.C.M.L.[Cit].R.V.Y.R.P.C.[am]}$PEPTIDE1,PEPTIDE1,3:R3-12:R3$$$V2.0; SMILES CSCC[C@@H]1NC(=O)[C@@H](NC(=O)[C@H](CCCNC(=N)N)NC(C)=O)CSSC[C@@H](C(N)=O)NC(=O)[C@@H]2CCCN2C(=O)[C@H](CCCNC(=N)N)NC(=O)[C@H](Cc2ccc(O)cc2)NC(=O)[C@H](C(C)C)NC(=O)[C@H](CCCNC(=N)N)NC(=O)[C@H](CCCNC(N)=O)NC(=O)[C@H](CC(C)C)NC1=O, also called Cit^10 peptide) [SEQ. ID. NO. 27 (Cit^10 analog of Ac-hMCH(6-16)-NH2)] falls below 20 ratio? Thanks.
Completion: NOT MET

Prompt: Proceed to Ac-RCML[Cha]RVYRPC-NH2 (disulfide 2-11) [SEQ. ID. NO. 19 (Cha^10 analog of Ac-hMCH(6-16)-NH2)]
Completion: MET

Prompt: Proceed to Ac-RCMLNRVYRPC-NH2 (disulfide 2-11 (inferred), also called Asn^10 peptide) [SEQ. ID. NO. 25 (Asn^10 analog of Ac-hMCH(6-16)-NH2)]
Completion: NOT MET

Prompt: Proceed to Ac-RCMLRRVYRPC-NH2 (disulfide 2-11 (inferred)) [SEQ. ID. NO. 23 (Arg^10 analog of Ac-hMCH(6-16)-NH2)]
Completion: MET

***
Prompt: Dear colleague, could you confirm whether Selectivity 2/1 (MCH-2R/MCH-1R IC50 ratio) of Ac-RCMLPRVYRPC-NH2 (disulfide 2-11 (inferred)) [SEQ. ID. NO. 22 (Pro^10 analog of Ac-hMCH(6-16)-NH2)] falls below 20 ratio? Thanks.
Completion: MET

Prompt: Proceed to Ac-RCMLFRVYRPC-NH2 (disulfide 2-11 (inferred)) [SEQ. ID. NO. 20 (Phe^10 analog of Ac-hMCH(6-16)-NH2)]
Completion: MET
